Tested on: M14
Assay: NCI tumour cell line growth inhibition, 48 h
The source made the active and inactive calls. Rule as the data show it: active = GI50 up to about 1.1 µM and inactive = higher.
Can you answer with just one of these options? 1 = active, -1 = inactive

Solved cases below.
{"Compound": "CSC(=O)c1sc(SC)[n+](-c2ccccc2)c1O", "Qualitative Label": -1}
{"Compound": "COc1ccc(NC(=O)N(C)CC2(O)CCC(C(C)(C)C)CC2)cc1 (centres undefined)", "Qualitative Label": -1}
{"Compound": "CC1(C)CS(=O)(=O)CC(C)(C)C(=N/N)/C1=N\\N", "Qualitative Label": -1}

Req: Outcome? CC(C)(C)OC(=O)NC12C3C4C1C1C2C3C41NC(=O)OC(C)(C)C (centres undefined)
Resp: -1

Req: Assay result, entry O=C(O)C1(C(O)c2ccccc2)SCCCS1 (centres undefined) — outcome?
Resp: -1

Req: For this compound, state the assay outcome: COc1ccc(C2C(=O)c3ccc(OC)cc3OC2c2cccnc2)cc1 (centres undefined)
Resp: -1

Req: Which outcome was entered for the compound "CC(=O)Nc1ccc2cc(C#N)c(=O)[nH]c2n1" in this test?
Resp: -1

Req: // return assay outcome for c1ccc(C(NC2=NCCO2)C2CC2)cc1 (centres undefined)
Resp: -1

Req: Called result for "CC(=O)O[C@@H]1[C@H]2[C@@H](OC(=O)c3ccccc3)[C@@H](C)C[C@]2(O)[C@H](OC(C)=O)[C@@]2(C)[C@@H]3C[C@@](C)(OC(C)=O)C[C@@H](OC(C)=O)[C@@]3(OC(C)=O)C[C@@]12C"
Resp: -1

Req: State the result this test recorded for "CCCN/C(N)=N/C#N" .
Resp: -1

Req: Which result was noted for this compound in the test: "C1=N\CCNCC/N=C\c2ccc(cc2)OCc2cccc(n2)COc2ccc/1cc2"
Resp: -1

###

Below, each entry is listed alongside its reported GI50.
Test system: NCI-H226
Test: NCI tumour cell line growth inhibition, 48 h
Active and inactive are the calls of the source. No stated cut-off is given here; in the data, active = GI50 up to about 1.1 µM and inactive = higher.

Previously resolved entries follow.
{"Compound": "COc1ccc([C@H]2C=C(c3cc(F)c(Cl)cc3Cl)NC(=S)N2)cc1", "Target Or Test System": "NCI-H226", "GI50": "56.1 µM (inactive)"}
{"Compound": "CN1CC[C@]2(c3cccc(O)c3)CC(=O)/C(=C/c3ccc(Cl)c(Cl)c3)[C@@H]1C2", "Target Or Test System": "NCI-H226", "GI50": "2.34 µM (inactive)"}
{"Compound": "COc1ccc(/C(=N/NC(N)=O)C2(O)C(=O)Nc3ccc([N+](=O)[O-])cc32)cc1 (centres undefined)", "Target Or Test System": "NCI-H226", "GI50": "45.7 µM (inactive)"}

Req: Quick check: GI50 of "O=C(Nc1ccc2cc3ccccc3cc2c1)c1cc2c(cc1Cl)Sc1nccn1S2(=O)=O" ?
Resp: 82.8 µM (inactive)

Req: Consider the compound shown here: "NCCSSCc1ccccc1CSSCCN" What is its recorded GI50?
Resp: > 100 µM (inactive)

Req: # query: GI50 of entry CC1CC(c2ccccc2)Nc2nc3ccccc3n21 (centres undefined)
Resp: > 100 µM (inactive)

Req: Dear colleague, I am looking for the recorded GI50 of the following compound: "Clc1n[nH]c2ccccc12"
Resp: 71 µM (inactive)

Req: Sample "O=C(CSc1nnc(-c2ccc(/N=C\c3ccc(Cl)cc3)cc2)o1)Nc1ccccc1Cl" — what was its GI50?
Resp: > 100 µM (inactive)

Req: Return reported GI50; argument: COC(=O)c1ccc(C)cc1CC1Cc2c(C)cccc2C1=O (centres undefined)
Resp: 13.7 µM (inactive)

Req: Can you share its GI50? I mean this compound: "COc1ccc(/C=N/Nc2nnc3c(n2)c2ccccc2c2nn(-c4ccccc4Cl)nc23)cc1"
Resp: > 100 µM (inactive)

Req: // returns reported GI50 for input "CCCc1c(O)c(=O)c2c(OC)cc(OC)c3c4c(OC)cc(OC)c5c(=O)c(O)c(CCC)c(c1c23)c54"
Resp: 1.63 µM (inactive)

Req: Which GI50 value is on record for COc1ccccc1Cc1ccc(C2C=CC3(CC(=O)C=C3C)C(=O)C2)o1 (centres undefined) ?
Resp: 25.6 µM (inactive)

Req: So what does the record say about GI50 for "N#CCCN(CCCN(CCCN(C(=O)Nc1ccccc1)c1ccccc1)C(=O)Nc1ccccc1)C(=O)Nc1ccccc1" ?
Resp: 31.4 µM (inactive)

Req: Please report the recorded GI50 for COc1ccccc1Cc1nc(-c2ccccc2)nn(C2OC(COC(C)=O)C(OC(C)=O)C(OC(C)=O)C2OC(C)=O)c1=S (centres undefined) .
Resp: 30.5 µM (inactive)

Req: // query GI50 value for entry c1ccc(C(NC2=NCCO2)C2CC2)cc1 (centres undefined)
Resp: > 100 µM (inactive)

###

System: MDA-MB-231
Assay: NCI tumour cell line growth inhibition, 48 h
Calls of active or inactive are those of the source. No stated cut-off is given here; in the data, active = GI50 up to about 1.1 µM and inactive = higher.
GI50 values, listed per item

Observe how each entry below is paired with its result.
{"Compound": "N#CCCN(CCCN(CCCN(C(=O)Nc1ccccc1)c1ccccc1)C(=O)Nc1ccccc1)C(=O)Nc1ccccc1", "GI50": "> 8.75 µM (inactive)"}
{"Compound": "CSc1c(C#N)c(N)n(-c2ccc(Cl)cc2)c(=O)c1C#N", "GI50": "> 100 µM (inactive)"}
{"Compound": "COc1ccc(NC(=O)N(C)CC2(O)CCC(C(C)(C)C)CC2)cc1 (stereo not drawn)", "GI50": "41.8 µM (inactive)"}

Req: Quick check: GI50 of "CCOC(=O)C1(C(=O)OCC)C[C@H](C)[C@](C)(O)C1" ?
Resp: > 100 µM (inactive)

Req: If you can, please state the reported GI50 value of "Nc1ccccc1/N=C/c1cc2cc([N+](=O)[O-])ccc2s1" .
Resp: 16.3 µM (inactive)

Req: Value lookup for GI50; key = CC(C)=CC[C@H]1C[C@]2(CC=C(C)C)C(=O)[C@@](CC=C(C)C)(C(=O)C(C(=O)c3ccccc3)=C2O)C1(C)C [6-EPI-CLUSIANONE]
Resp: 6.01 µM (inactive)

Req: Report GI50 for "CN(C)c1ccc(/C=C2\C[C@H]3[C@@H]4CC=C5C[C@@H](N6CCCC6)CC[C@]5(C)[C@H]4CC[C@]3(C)[C@H]2O)cc1" please.
Resp: 0.973 µM (active)

Req: Given the compound "CSc1csc(-c2ccc(-c3ccc(-c4cc(SC)cs4)s3)s2)c1" , what is its reported GI50?
Resp: > 100 µM (inactive)

Req: Look up GI50 for this compound: "Cc1cc(C)nc(NS(=O)(=O)c2ccc(Nc3c4ccccc4nc4c(C(=O)NCCO)cccc34)cc2)n1"
Resp: 12.4 µM (inactive)

Req: For "COC(=O)/C=C1\C(=O)N(C(C)=O)c2ccc(Br)cc21" , what is its reported GI50?
Resp: 14.9 µM (inactive)

Req: Which GI50 value is on record for "N=c1oc2ccc3ccccc3c2cc1C(N)=O" ?
Resp: 25.9 µM (inactive)

###

Form field: GI50 (one value per entry).
Tested on: M14
Experiment: NCI tumour cell line growth inhibition, 48 h
The source made the active and inactive calls. Cut-off read from the data, not from the text of the source: active = GI50 up to about 1.1 µM and inactive = higher.

Guide cases for GI50, answers given:
{"Compound": "Cc1ccc2[nH]c(Sc3c([N+](=O)[O-])ncn3C)nc2c1", "GI50": "17.6 µM (inactive)"}
{"Compound": "O=C(CSc1nnc(Cc2ccccc2)o1)Nc1cccc(Cl)c1", "GI50": "69 µM (inactive)"}
{"Compound": "Cc1cccc(C)c1N1C(=O)C(=O)C(c2nc3ccccc3s2)/C(=N/NC(=O)NN)C1=O (stereo not given)", "GI50": "> 100 µM (inactive)"}
{"Compound": "O=[N+]([O-])C1C2C=CC(C2)[C@H]1c1ccccc1Cl (stereo not given in full)", "GI50": "> 100 µM (inactive)"}

Now take the following compound into account.
Req: Find the measured GI50: item "C[C@]12CC[C@@H]3c4ccc(O)cc4CC[C@H]3[C@@H]1C/C(=C\c1ccncc1)C2=O" , target or system M14.
Resp: 20.4 µM (inactive)

###

Test system: OVCAR-5
Assay: NCI tumour cell line growth inhibition, 48 h
Calls of active or inactive are those of the source. Rule as the data show it: active = GI50 up to about 1.1 µM and inactive = higher.
Outcomes you can answer with include only these: true (active), false (inactive)

Observe how each entry below is paired with its result.
{"Molecule": "O=C(O)CCN(CCCN(CCC(=O)O)CCC(=O)O)CCC(=O)O", "Qualitative Label": "false"}
{"Molecule": "CN(C(=O)C12C3C4C1C1C4(C(=O)C45C6C7C4C4C5C6C74C)C3C12C)C(C)(C)C (stereo not given)", "Qualitative Label": "false"}
{"Molecule": "COc1ccc([C@H]2C=C(c3cc(F)c(Cl)cc3Cl)NC(=S)N2)cc1", "Qualitative Label": "false"}
{"Molecule": "C=C1CCC[C@@H](C)C(O)[C@@H]2OC(=O)C(=C)[C@@H]2C[C@@H](OC(C)=O)[C@@]2(C)CC[C@@H]1O2 (stereo not given in full)", "Qualitative Label": "false"}
{"Molecule": "COC(=O)[C@@H]1O[C@]12[C@@H](CO[Si](C)(C)C(C)(C)C)O[C@@H](n1cc(C)c(=O)[nH]c1=O)[C@@H]2O[Si](C)(C)C(C)(C)C", "Qualitative Label": "false"}
{"Molecule": "Cc1ccc(/C=C/c2n[nH]c(N/N=C/c3ccc4c(c3)OCO4)nc2=O)cc1", "Qualitative Label": "false"}
{"Molecule": "O=P(Oc1ccccc1)(Oc1ccccc1)Oc1c[nH]c2ccccc12", "Qualitative Label": "true"}
{"Molecule": "Cn1c(=O)cc(Nc2ccc(N)cc2)[nH]c1=O", "Qualitative Label": "false"}

Req: Record lookup: outcome of this test for "COc1ccccc1/C=C1\C(=O)N(C(=O)Cc2ccccc2)N=C1C" ?
Resp: false

Req: Which outcome was entered for the molecule O=C(NC(Cc1ccc(I)cc1)C(=O)O)c1ccc(I)cc1 (stereo not given) in this test?
Resp: false

Req: Dear all, I need the recorded test outcome for C[Si](C)(C)CN1C(=O)c2ccccc2C1(O)c1ccccc1 (stereo not given) , thank you.
Resp: false

Req: Hi team, can someone confirm the assay call for "Cc1ccc(/C=C2\CCS(=O)(=O)c3ccccc3C2=O)cc1" ?
Resp: false
